Species on record: Rattus norvegicus
Type: toxicity, organism-based, Sprague-Dawley
conditionDescription: in vivo, po, […], 24 h, tissue Blood, route oral GAVAGE, dose 7.5 mg/Kg, dose level High, time 1 day, vehicle 100 % SALINE
Description: DrugMatrix - Regimen: Single
parameterMeasured: ABSOLUTE EOSINOPHIL (cells/µL)
Answers are plain numbers, in cells/µL.

So for Nc1ncnc2c1ncn2[C@@H]1O[C@H](CO)[C@@H](O)[C@H]1F , the logged ABSOLUTE EOSINOPHIL turned out to be 40

----------
Species: Rattus norvegicus
assayOverview: DrugMatrix - Regimen: Daily Repeat
Format: toxicity, organism-based, Sprague-Dawley
Parameters: regimen Daily Repeat, gender Male, age 6-8 weeks
conditionDescription: in vivo, po, 2000 mg/kg, 120 h, tissue Blood, route oral GAVAGE, dose level High, time 5 day, vehicle .5 % CMC
parameterMeasured: NEUTROPHIL (%)
Numbers only, in %.

Completed entries (count: 5):
compound	parameterMeasured	numericReadout
CC1(C)S[C@@H]2[C@H](NC(=O)[C@H](N)c3ccccc3)C(=O)N2[C@H]1C(=O)O	NEUTROPHIL	10
CN/C(=N/CCSCc1nc[nH]c1C)NC#N	NEUTROPHIL	5.67
CN(C/C=C/C#CC(C)(C)C)Cc1cccc2ccccc12	NEUTROPHIL	12.33
COc1cc2nc(N3CCN(C(=O)c4ccco4)CC3)nc(N)c2cc1OC	NEUTROPHIL	6.67
O=C1Nc2ccc(Cl)cc2C(c2ccccc2Cl)=NC1O (stereo unspecified)	NEUTROPHIL	9.5

As a next step, examine the compound that follows.
NC1CCN(c2nc3c(cc2F)c(=O)c(C(=O)O)cn3-c2ccc(F)cc2F)C1 (stereo unspecified) has a reported NEUTROPHIL of 6
